B1: tRNA (parent)
chain: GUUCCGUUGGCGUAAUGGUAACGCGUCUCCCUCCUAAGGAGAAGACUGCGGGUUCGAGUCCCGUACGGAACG

Variants of: B1
PROTOCOL NOTES: yeast fitness relative to wild type (ratio to wild type); higher = fitter; tRNA-Arg(CCU), competitive growth, 37 C, YPD
Variants at the floor of the assay were thinned out.
Hi there, I'd appreciate the recorded yeast fitness for every entry that follows.

mut="C29A U32A A65C" assay_result="≤ 0.5"
mut="G12A A20G A45U C49G A57U" assay_result="≤ 0.5"
mut="A14U C22G A42C C66U" assay_result="≤ 0.5"
mut="U8C G9A C22U C30A C49A C55A C62U C66U" assay_result="≤ 0.5"
mut="A15U A20G C46G C61A" assay_result="≤ 0.5"

Each of the following entries comes with a recorded value; kindly state yeast fitness for each.
1. C5G A42U A57U U59A A69C
2. C27U U35A U59C
3. A14U U26A C55G A65C
4. U13C G25A C33G G41C C61G A65U
5. A45U U54C U64A A69U
6. C5U A37G U59G G68C
7. G9A U13C A21U A36G A40C A69U
8. C4U A21C G25A C30A C31G U32C G41C

Given back:
1. ≤ 0.5
2. ≤ 0.5
3. ≤ 0.5
4. ≤ 0.5
5. ≤ 0.5
6. ≤ 0.5
7. ≤ 0.5
8. ≤ 0.5

Each of the following entries comes with a recorded value; kindly state yeast fitness for each.
1. C4A A20U U32C A43U
2. C31G U53C U54G
3. U3A C5A C33G C34U C61G
4. U26C U32A C34U G38C G51A C60U C62U
5. A14C C29G
6. A21G G48C C66U G67C A70G
7. U16A C27G A42U U53C

Given back:
1. ≤ 0.5
2. ≤ 0.5
3. ≤ 0.5
4. ≤ 0.5
5. ≤ 0.5
6. ≤ 0.5
7. ≤ 0.5

Each of the following entries comes with a recorded value; kindly state yeast fitness for each.
1. G6C C22A C31G A65C
2. U2A A21C C24G U32A A42C A65U
3. C5A U16A A45G G50A C61U
4. A14G C22G U28A C31G C55A G68C
5. G9C C11G C24U C31U U59G A70C
6. U2G C11G A20U C24G A42G

Given back:
1: ≤ 0.5; 2: ≤ 0.5; 3: ≤ 0.5; 4: ≤ 0.5; 5: ≤ 0.5; 6: ≤ 0.5
